Hello, the source for this data is the supplement of paper PMC7877785, in case you need it.

Assay: self-splicing fitness, log relative to wild type (ln ratio); higher = more splicing; Tetrahymena group I intron in knt gene, E. coli kanamycin selection, DiMSum; sequences stand for … in CUCUCU…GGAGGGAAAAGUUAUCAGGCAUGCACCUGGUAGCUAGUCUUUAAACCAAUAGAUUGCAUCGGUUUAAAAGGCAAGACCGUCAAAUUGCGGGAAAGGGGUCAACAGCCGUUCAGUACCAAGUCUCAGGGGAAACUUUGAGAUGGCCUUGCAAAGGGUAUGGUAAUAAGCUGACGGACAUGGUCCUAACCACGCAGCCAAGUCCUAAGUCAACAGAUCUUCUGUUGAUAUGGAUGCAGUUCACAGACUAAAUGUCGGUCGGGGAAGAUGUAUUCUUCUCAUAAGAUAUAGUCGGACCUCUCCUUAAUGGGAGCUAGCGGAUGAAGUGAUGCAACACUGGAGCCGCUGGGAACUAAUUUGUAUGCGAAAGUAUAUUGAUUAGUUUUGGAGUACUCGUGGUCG;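 note: selection with 25 µg/mL kanamycin versus none on LB agar overnight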
Settings: 30 °C
reportedEndpoint: self-splicing fitness (ln)
Lab note: record just the number, no unit beside it.

Please supply the value of reported self-splicing fitness (ln) for the item "GCCAAGCAAUAUUACGUAGA"
-1.98

Please supply the value of reported self-splicing fitness (ln) for the item "CGAGAGCAAUAUUACGUUCG"
-3.2

Please supply the value of reported self-splicing fitness (ln) for the item "UCCGAGCAAUAUUACGCUCG"
-3.71

Please supply the value of reported self-splicing fitness (ln) for the item "AGUAAGCAAUAUUACGAACA"
-0.711

Please supply the value of reported self-splicing fitness (ln) for the item "UAACAGCAAUAUUACGAUGC"
-3.84

Please supply the value of reported self-splicing fitness (ln) for the item "CAAUAGCAAUAUUACGUACG"
-0.451

Please supply the value of reported self-splicing fitness (ln) for the item "GGGGAGCAAUAUUACGUAGA"
-2.43

Please supply the value of reported self-splicing fitness (ln) for the item "UAUGAGCAAUAUUACGGAGA"
-2.48
